Biological target: PEG-3 (UniProt Q6IN02)
Sequence (Q6IN02 whole entry, looked up): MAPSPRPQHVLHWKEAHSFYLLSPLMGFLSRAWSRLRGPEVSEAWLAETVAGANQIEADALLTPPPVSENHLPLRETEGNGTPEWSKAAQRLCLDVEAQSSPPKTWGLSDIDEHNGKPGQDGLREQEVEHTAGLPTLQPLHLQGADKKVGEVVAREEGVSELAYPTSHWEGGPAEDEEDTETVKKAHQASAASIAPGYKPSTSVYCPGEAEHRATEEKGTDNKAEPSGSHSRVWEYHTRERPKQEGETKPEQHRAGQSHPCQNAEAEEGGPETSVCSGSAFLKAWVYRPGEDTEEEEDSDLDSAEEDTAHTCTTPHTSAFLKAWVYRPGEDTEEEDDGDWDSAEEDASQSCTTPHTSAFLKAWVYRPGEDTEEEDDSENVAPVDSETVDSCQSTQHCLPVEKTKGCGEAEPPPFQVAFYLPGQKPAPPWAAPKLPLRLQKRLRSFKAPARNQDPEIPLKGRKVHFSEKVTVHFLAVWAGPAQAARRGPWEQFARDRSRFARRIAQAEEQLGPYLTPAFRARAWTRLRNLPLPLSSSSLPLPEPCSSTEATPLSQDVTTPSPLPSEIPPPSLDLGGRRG
Experiment: Peg3 promoter luciferase inhibitors, potency, dose response, cell-based, HeLa, CREF/GAPDH counter-screen panel (AID 624167)
Settings: CREF/GAPDH counter-screens; HeLa PEG-Prom luciferase reporter, overnight, run 1, dose range 1, at 100 µM (top of the series) unless noted
Please respond with reported inhibition for every item in the list.

Please look up its inhibition: COc1ccc(NC(=O)N(C)[C@H]2C[C@H]3c4[nH]c5ccc(-c6cccc(C)c6)cc5c4CCN3C[C@H]2[C@H](C)O)cc1
98.4%

What do you have for CC(/C=C/c1ccccc1)=N/NC(=O)c1cc([N+](=O)[O-])cc([N+](=O)[O-])c1 ?
94.6%

Same again, this time with CCCn1nc(C(=O)Nc2nc(-c3ccccn3)cs2)c2ccccc2c1=O
84.7%

Would you mind doing CN1OC[C@@H]2CN(S(=O)(=O)c3cccc(C(F)(F)F)c3)[C@H](c3ccc(-c4cc5ccccc5o4)cc3)C[C@@H]21 as well?
60%

Now the molecule COc1ccc(C(=O)CN2C(=O)c3ccccc3S2(=O)=O)cc1
99.1%

Now this one: CN=c1scc(-c2ccccc2F)n1/N=C/c1ccc[nH]1
98.7%

How about COc1cccc(/C=N/NC(=O)c2c(-c3ccccc3)noc2C)c1O ?
33.5%

Ok, now CC(C)n1cc(CN2CCC(C(=O)Nc3cccc(-c4cccc(Cl)c4)c3)CC2)cn1
99.3%

Same again, this time with Cc1ccc(C2=NC(=O)/C(=C/c3cc(O)c(O)c(Br)c3)S2)cc1
88.6%

Request: O=C(/C=C/c1ccc(Cl)c([N+](=O)[O-])c1)c1ccc(O)cc1
102%

Queued: CCN(CC)CCNc1cccc2sc3ccccc3c(=O)c12
94.6%

Follow-up item: C/C(=N\NC(=O)c1cc(C2CC2)nc2ccccc12)c1ccc(O)cc1O
59.9%

Now the molecule COC(=O)c1ccc(OCC2c3cc(OC)c(OC)cc3CCN2C(=O)c2ccco2)cc1 (configuration not stated)
77.9%

Repeat with COc1ccc(C(=O)/C=C/Nc2ccccn2)cc1
95.5%

And for C(=NNc1ccc2ccccc2n1)c1ccccn1 ?
99%

Now the molecule CN(CC(=O)Nc1ccc(Cl)c(C(F)(F)F)c1)C(=O)c1cc(-c2ccncc2)nc2ccccc12
102%

Next entry: O=C(Nc1ccc(N2CCOCC2)cc1)c1cnsn1
96.4%

Same question, CCCN(CCC)CCCNC(=S)Nc1ccc2nc(N3CCCC3)cc(C)c2c1 this time
99.6%

Moving on to CS(=O)(=O)c1ccc(C(=O)NCCN2C(=O)S/C(=C\c3cccnc3)C2=O)cc1[N+](=O)[O-]
102%

Repeat with COC1CC(C)C(OC)c2cc(O)cc(c2O)NC(=O)C(C)=CC=CC(C)C(OC(N)=O)C(C)=CC(C)C1OC (configuration not stated)
94%

Also COc1ccccc1C(=O)Nc1nc2ccccc2[nH]1 , if possible.
99.2%

Note, next up: CS(=O)(=O)c1ccc(-c2cn3cc(C(=O)O)ccc3n2)cc1
82.1%

* * *

Molecular target: Tumor necrosis factor receptor superfamily member 10B (Homo sapiens)
Assay: caspase-8 TRAIL sensitization, hit retest, confirmation, cell-based, NB7+caspase-8, with/without TRAIL, luminescence panel (AID 651596)
Settings: NB7 neuroblastoma + caspase-8, TRAIL sensitization, luminescence viability, with TRAIL, mean of runs, at 10 µM, stronger effect = higher value
Please use yes for activity under 60% and no for everything else, ties included.

Consider the compound CCOc1ccc(N2C(N)=NC(N)=NC2(C)C)cc1 . Is its activity strictly less than 60%?
no

Further, for Cc1ccc(-c2nc(N/N=C/c3ccccc3[N+](=O)[O-])c3ccccc3n2)cc1 ?
no

CC(C)c1ccc2c(c1)CC[C@H]1[C@](C)(CN)CCC[C@]21C , same question.
yes

Lookup CCCCNC(=O)c1cn(C)c2ccc(S(=O)(=O)N3CC(C)CC(C)C3)cc2c1=O (stereo not given)
yes

What do we get for COc1cccc2cc(-c3nc4ccccc4[nH]3)c(=O)oc12 ?
no

Another compound: O=C(Nc1ccc(Cl)c(Cl)c1)Nc1ccccc1C(=O)O
yes

// query: NC(N)=Nc1ccc(C=C2C=Cc3ccccc32)cc1
no

How about O=C(Nc1ccc2c(c1)CCC2)c1ccccc1F ?
yes

How about this compound: COC(=O)c1ccc2nc(-c3ccc4c(c3)OCO4)cn2c1
no

Then O=C(NC(=S)Nc1nc2c(s1)CCCC2)c1ccccc1 ?
no

Same lookup for COc1cc(SC#N)ccc1N=Cc1c(C)[nH]n(-c2ccc(Cl)cc2)c1=O , please.
no

Another: Cc1ccc(C(=O)N/N=C\c2cccc(OC(=O)c3cccc(F)c3)c2)cn1
yes

Try this compound too: O=C(c1ccc(Cl)cc1)N1CCCCC(Sc2nnc(-c3ccc4c(c3)OCO4)o2)C1=O (stereo not given)
no

// next record CCCC(=O)N1CCCC(c2cc(C(=O)Nc3ccccc3)no2)C1 (stereo not given)
yes

Consider next the compound N#Cc1nc(NCC(F)F)nc(Nc2cc(F)cc(F)c2)n1 in the same way.
no

Next compound up: Cc1cc(C(=O)COC(=O)c2ccccc2Br)c(C)n1CC1CCCO1 (stereo not given)
no

CCOc1ccc(C(=O)Nc2cc(C)on2)cc1 , same question.
no

Another compound to check: CCN(CC)CCn1c2c(c(SCC(=O)Nc3nc4ccc(C)cc4s3)nc1=O)CCC2
yes

Item: COc1ccc(C(=O)Nc2ccc3ncccc3c2)cc1
no

// next record Nc1c(-c2ccccc2)cnc2c(-c3ccccc3)cnn12
no

Cool, now O=C(/C(=C/c1ccc(Cl)cc1)c1nc2ccccc2[nH]1)c1ccccc1
no

Values compiled from PubChem BioAssay.
